Data origin, for the record: ChEMBL document CHEMBL4689842

Each item that follows carries a reported Population Mitotic Cells (%).
test system: Fibroblast; assay: Multiplex assay against human fibroblast; format: toxicity, cell-based; conditions: 12 h, 1 µM, compound concentration 1 uM, replicate 2

{"Item smiles": "Cc1cn(-c2cc(NC(=O)c3ccc(C)c(Nc4nccc(-c5cccnc5)n4)c3)cc(C(F)(F)F)c2)cn1", "Population Mitotic Cells (%)": 75}
{"Item smiles": "CCN1CCN(c2ccc(Nc3cc(N(C)C(=O)Nc4c(Cl)c(OC)cc(OC)c4Cl)ncn3)cc2)CC1", "Population Mitotic Cells (%)": 22}
{"Item smiles": "O=C(Nc1ccc(-n2nc(-c3cccnc3)cc2C(F)(F)F)cn1)c1ccc(-c2ccccc2)c(F)c1", "Population Mitotic Cells (%)": 50}
{"Item smiles": "CCNc1cc(N[C@H]2CC[C@H](O)CC2)nc(Nc2ccc3c(ccn3Cc3ccccc3)c2)n1", "Population Mitotic Cells (%)": 33}
{"Item smiles": "NC(=O)c1cccc(-c2cc(Nc3ccc(OC(F)(F)F)cc3)ncn2)c1", "Population Mitotic Cells (%)": 80}
{"Item smiles": "CCOc1cc2ncc(C#N)c(Nc3ccc(OCc4ccccn4)c(Cl)c3)c2cc1NC(=O)/C=C/CN(C)C", "Population Mitotic Cells (%)": 88}
{"Item smiles": "COc1ccc(-c2ccc3c(N4CCOCC4)nc(N4C[C@@H](C)O[C@@H](C)C4)nc3n2)cc1CO", "Population Mitotic Cells (%)": 66}
{"Item smiles": "O=C(Cc1ccc(-c2ccc(OCCN3CCOCC3)cc2)cn1)NCc1ccccc1", "Population Mitotic Cells (%)": 100}

====

system: Fibroblast; assay: Multiplex assay against human fibroblast; type: toxicity, cell-based; conditions: 24 h, 10 µM, compound concentration 10 uM, replicate 1
Value kind: Population Membrane Permeable-Phenotype (%)

{"Compound": "CCCS(=O)(=O)c1nc(NC2CC2)cc(-c2ccc3c(ccn3C3CC(C)(C)NC(C)(C)C3)c2)n1", "Unit annotation": "%", "Measured value": 63}
{"Compound": "CCOc1cc2ncc(C#N)c(Nc3ccc(OCc4ccccn4)c(Cl)c3)c2cc1NC(=O)/C=C/CN(C)C [NERATINIB]", "Unit annotation": "%", "Measured value": 3}
{"Compound": "Cc1ccc(C(=O)Nc2cccc(C(F)(F)F)c2)cc1Nc1nc(-c2cccnc2)nc2c1cnn2C", "Unit annotation": "%", "Measured value": 42}
{"Compound": "CCN1CCN(Cc2ccc(Nc3ncc(F)c(-c4cc(F)c5nc(C)n(C(C)C)c5c4)n3)nc2)CC1.CS(=O)(=O)O", "Unit annotation": "%", "Measured value": 46}
{"Compound": "Cn1nc(C(F)(F)F)cc1-c1cnc(N2CCc3cc(S(=O)(=O)Nc4c(F)cc(Cl)cc4F)cc(N4CCCC4=O)c32)nc1 [TP-020]", "Unit annotation": "%", "Measured value": 7}
{"Compound": "O=C(Nc1ccc(-n2nc(-c3cccnc3)cc2C(F)(F)F)cn1)c1ccc(-c2ccccc2)c(F)c1 [BI 2049]", "Unit annotation": "%", "Measured value": 12}

====

tested on: U2OS; assay: Multiplex assay against U2OS; assay type: toxicity, cell-based; details: human, 24 h, 10 µM, compound concentration 10 uM, replicate 2
# label = label 1 if Population Mitotic Cells (%) < 50% else label 0

{"Item smiles": "C=CCn1c(=O)c2cnc(Nc3ccc(N4CCN(C)CC4)cc3)nc2n1-c1cccc(C(C)(C)O)n1", "Category label": "label 1"}
{"Item smiles": "O=C(Cc1ccc(-c2ccc(OCCN3CCOCC3)cc2)cn1)NCc1ccccc1", "Category label": "label 1"}
{"Item smiles": "COc1cccc2cc(-c3nc([C@H]4CC[C@H](C(=O)O)CC4)n4ncnc(N)c34)[nH]c12", "Category label": "label 0"}
{"Item smiles": "COc1cc(N2CCN(C)CC2)ccc1Nc1ncc2c(n1)N(C)c1ccccc1C(=O)N2C", "Category label": "label 1"}
{"Item smiles": "Cl.O=C(c1ccc(Nc2nccc(-c3cc4ccccc4s3)n2)cc1)N1CCC(N2CCCC2)CC1", "Category label": "label 1"}
{"Item smiles": "CCc1cccc(CC)c1NC(=O)c1nn(C)c2c1CCc1cnc(Nc3ccc(N4CCN(C)CC4)cc3OC)nc1-2", "Category label": "label 0"}
{"Item smiles": "COCC(=O)NC/C=C/c1ccc2ncnc(Nc3ccc(Oc4ccc(C)nc4)c(C)c3)c2c1", "Category label": "label 1"}

====

test system: Fibroblast; assay: Incucyte cell viability with human fibroblast; type: toxicity, cell-based; details: 24 h, 10 µM, compound concentration 10 uM, replicate number 1, timepoint 24 hours; note: filed as whole numbers so only -1 and 0 and 1 occur
Value kind: Growth Rate

{"Compound": "COc1cc(N2CCC(N3CCN(C)CC3)CC2)ccc1Nc1ncnc(Nc2ccccc2S(=O)(=O)C(C)C)n1", "Value kind": "Growth Rate", "Measured value": 0}
{"Compound": "N[C@@H](Cc1cc(I)c(Oc2ccc(O)c(I)c2)c(I)c1)C(=O)O", "Value kind": "Growth Rate", "Measured value": 0}
{"Compound": "CN1CCN(C(=O)C(C)(C)c2ccc(C(=O)Nc3cn4cc(-c5cc(C(C)(C)C)cc(C(C)(C)C)c5)ccc4n3)cc2)CC1", "Value kind": "Growth Rate", "Measured value": 1}
{"Compound": "CC1(C)CCC(C)(C)c2cc(NC(=O)c3ccc(C(=O)O)cc3)ccc21", "Value kind": "Growth Rate", "Measured value": 1}
{"Compound": "CCN(CC)S(=O)(=O)Nc1cccc(-c2ccc3c(NC(=O)C4CC4)n[nH]c3c2)c1", "Value kind": "Growth Rate", "Measured value": 0}
{"Compound": "CCOc1cc(C(=O)N2CCC(N3CCN(C)CC3)CC2)ccc1Nc1ncc2c(n1)N(C1CCCC1)c1ccccc1C(=O)N2C", "Value kind": "Growth Rate", "Measured value": 0}
{"Compound": "CC[C@@H]1CN2C(=O)N(C)c3nc(-c4ccccc4)[nH]c3C2=N1.Cl", "Value kind": "Growth Rate", "Measured value": 1}
{"Compound": "O=C1NCN(c2ccccc2)C12CCN(CC1COc3ccccc3O1)CC2 (configuration not stated)", "Value kind": "Growth Rate", "Measured value": 1}
{"Compound": "NS(=O)(=O)c1c(Cl)ccc(NC(=O)Nc2cccc(Cl)c2Cl)c1O", "Value kind": "Growth Rate", "Measured value": 1}
{"Compound": "CCc1cccc(CC)c1NC(=O)c1nn(C)c2c1CCc1cnc(Nc3ccc(N4CCN(C)CC4)cc3OC)nc1-2", "Value kind": "Growth Rate", "Measured value": 0}
{"Compound": "O=C(c1ccc(C(=O)N2CCC(N3CCCC3)CC2)c(Nc2ccccc2)c1)N1CCC(N2CCCC2)CC1", "Value kind": "Growth Rate", "Measured value": 1}
{"Compound": "OCCn1cc(-c2cnc3nnn(Cc4ccc5ncccc5c4)c3n2)cn1", "Value kind": "Growth Rate", "Measured value": 1}
{"Compound": "C[C@]12CCC(=O)C=C1CC[C@@H]1[C@@H]2[C@@H](O)C[C@]2(C=O)[C@@H](C(=O)CO)CC[C@@H]12", "Value kind": "Growth Rate", "Measured value": 1}
{"Compound": "CC(C)OC(=O)C1=CN(C(=O)c2ccc(F)c(F)c2)CC(C)(C)c2c1[nH]c1ccccc21 [TUROFEXORATE ISOPROPYL]", "Value kind": "Growth Rate", "Measured value": 0}
{"Compound": "CCn1cc(-c2ccnc3[nH]c(-c4cccc(CN(C)C)c4)cc23)c(-c2ccc(NC(=O)N(C)C)cc2)n1", "Value kind": "Growth Rate", "Measured value": 0}
{"Compound": "O=C1NC(=O)C(c2cnc3ccccn23)=C1c1cn2c3c(cc(F)cc13)CN(C(=O)N1CCCCC1)CC2", "Value kind": "Growth Rate", "Measured value": 0}
{"Compound": "Cc1nc(NC(=O)N2CCC[C@H]2C(N)=O)sc1-c1ccnc(C(C)(C)C(F)(F)F)c1", "Value kind": "Growth Rate", "Measured value": 1}
{"Compound": "COc1cc2ncnc(Nc3ccc(F)c(Cl)c3)c2cc1NC(=O)/C=C/CN1CCCCC1 [DACOMITINIB ANHYDROUS]", "Value kind": "Growth Rate", "Measured value": 0}
{"Compound": "O=C(Nc1nc2cccc(-c3ccc(CN4CCS(=O)(=O)CC4)cc3)n2n1)C1CC1", "Value kind": "Growth Rate", "Measured value": 0}
{"Compound": "COc1cc(N2CCC(N3CCN(C)CC3)CC2)ccc1Nc1ncc(Cl)c(Nc2ccccc2P(C)(C)=O)n1", "Value kind": "Growth Rate", "Measured value": 0}
{"Compound": "CCN1CCN(Cc2ccc(Nc3ncc(F)c(-c4cc(F)c5nc(C)n(C(C)C)c5c4)n3)nc2)CC1.CS(=O)(=O)O", "Value kind": "Growth Rate", "Measured value": 0}
{"Compound": "CCCCCNC(=O)NS(=O)(=O)c1cc([N+](=O)[O-])ccc1NC1CCCCC1", "Value kind": "Growth Rate", "Measured value": 1}
{"Compound": "CNc1cc(Oc2cc(C(=O)Nc3cc(N4CCN(C)CC4)cc(C(F)(F)F)c3)ccc2C)ncn1", "Value kind": "Growth Rate", "Measured value": 0}
{"Compound": "CN(C)C(=O)c1cc2cnc(Nc3ccc(N4CCNCC4)cn3)nc2n1C1CCCC1", "Value kind": "Growth Rate", "Measured value": 1}
{"Compound": "CN1C2CCC1CC(OC(c1ccc(F)cc1)c1ccc(F)cc1)C2.Cl (configuration not stated)", "Value kind": "Growth Rate", "Measured value": 0}
{"Compound": "CCNc1cc(N[C@H]2CC[C@H](O)CC2)nc(Nc2ccc3c(ccn3Cc3ccccc3)c2)n1", "Value kind": "Growth Rate", "Measured value": 0}
{"Compound": "C[C@@H](c1cccc(C#N)c1)n1cc(Cl)cc(C(N)=O)c1=N.Cl", "Value kind": "Growth Rate", "Measured value": 1}
{"Compound": "Cc1c(NC(=O)c2cc(C(N)=O)nc3cc(F)ccc23)c(C(F)(F)F)nn1Cc1ccc(C(C)(C)C)cc1", "Value kind": "Growth Rate", "Measured value": 0}
{"Compound": "CN(C)C(=O)C(CCN1CCC(O)(c2ccc(Cl)cc2)CC1)(c1ccccc1)c1ccccc1.Cl [LOPERAMIDE HYDROCHLORIDE]", "Value kind": "Growth Rate", "Measured value": 0}
{"Compound": "O=C(NS(=O)(=O)c1ccc(NCC2CCOCC2)c([N+](=O)[O-])c1)c1ccc(N2CCN(Cc3ccc(C(F)(F)F)cc3-c3ccc(Cl)cc3)CC2)cc1Oc1cnc2[nH]ccc2c1", "Value kind": "Growth Rate", "Measured value": 1}
{"Compound": "CCCS(=O)(=O)c1nc(NC2CC2)cc(-c2ccc3c(ccn3C3CC(C)(C)NC(C)(C)C3)c2)n1", "Value kind": "Growth Rate", "Measured value": 0}
{"Compound": "C=C(c1ccc(C(=O)O)cc1)c1cc2c(cc1C)C(C)(C)CCC2(C)C", "Value kind": "Growth Rate", "Measured value": 1}
